Biological target: T1, monkey TIM-3 protein with hFc tag (cTIM-3-hFc protein) (monkey; human)
T1 construct: Made in HEK293 cells; also called monkey TIM-3 extracellular domain protein; not shown: human IgG Fc fragment (hFc) of the pCpC vector
T1 chain: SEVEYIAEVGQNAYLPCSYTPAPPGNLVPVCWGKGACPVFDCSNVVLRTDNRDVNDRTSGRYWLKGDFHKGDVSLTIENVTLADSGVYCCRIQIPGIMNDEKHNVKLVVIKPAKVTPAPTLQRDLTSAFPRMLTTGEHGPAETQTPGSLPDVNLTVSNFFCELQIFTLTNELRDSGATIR
Assay: ELISA, coated cTIM-3-hFc; antibody 6.6667 nM
From the text: The amino acid sequence 22-200 of the extracellular domain of the human TIM-3 protein described in the step of Example 1 (as shown in SEQ ID NO. 71 in the sequence listing) was cloned into a pCpC vector having a human IgG Fc fragment (hFc), and transfected into HEK293 cells. […] An ELISA plate reader (TiterMax 384plus, Molecular Device) was used to read the A450 nm value.
Experimental Readout: OD450

INSERT INTO measurements (binder, endpoint_value) VALUES
  ('57F4E5 (TIM-3 antibody purified from hybridoma, chimeric antibody of Example 2) (antibody, V domains shown, From hybridoma of Harbour H2L2 transgenic mice: human variable regions, rat constant regions) VH: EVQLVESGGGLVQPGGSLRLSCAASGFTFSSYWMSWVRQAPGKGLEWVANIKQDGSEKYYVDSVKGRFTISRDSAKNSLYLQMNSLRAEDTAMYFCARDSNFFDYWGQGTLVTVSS VL: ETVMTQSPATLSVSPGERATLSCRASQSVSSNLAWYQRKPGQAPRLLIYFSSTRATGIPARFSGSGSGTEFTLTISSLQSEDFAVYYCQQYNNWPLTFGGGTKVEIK', 3.48),
  ('7A4F10 (TIM-3 antibody purified from hybridoma, chimeric antibody of Example 2) (antibody, V domains shown, From hybridoma of Harbour H2L2 transgenic mice: human variable regions, rat constant regions) VH: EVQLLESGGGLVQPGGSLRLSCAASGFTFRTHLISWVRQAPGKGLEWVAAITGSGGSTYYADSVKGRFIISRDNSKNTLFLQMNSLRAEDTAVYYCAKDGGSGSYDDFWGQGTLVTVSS VL: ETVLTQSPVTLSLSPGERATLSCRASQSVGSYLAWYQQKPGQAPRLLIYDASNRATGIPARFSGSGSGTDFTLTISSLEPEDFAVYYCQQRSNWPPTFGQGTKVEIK', 3.12),
  ('34B6D8 (TIM-3 antibody purified from hybridoma, chimeric antibody of Example 2) (antibody, V domains shown, From hybridoma of Harbour H2L2 transgenic mice: human variable regions, rat constant regions) VH: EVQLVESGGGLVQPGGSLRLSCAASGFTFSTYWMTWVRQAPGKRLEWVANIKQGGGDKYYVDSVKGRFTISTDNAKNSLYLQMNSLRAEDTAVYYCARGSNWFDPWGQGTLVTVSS VL: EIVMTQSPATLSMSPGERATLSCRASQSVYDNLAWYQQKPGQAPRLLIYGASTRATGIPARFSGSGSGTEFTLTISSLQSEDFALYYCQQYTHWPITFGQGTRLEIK', 3.55);
